The origin of these recorded values is the supplement of paper PMC7877785.

- experiment: self-splicing fitness, log relative to wild type (ln ratio); higher = more splicing; Tetrahymena group I intron in knt gene, E. coli kanamycin selection, DiMSum; sequences stand for … in CUCUCU…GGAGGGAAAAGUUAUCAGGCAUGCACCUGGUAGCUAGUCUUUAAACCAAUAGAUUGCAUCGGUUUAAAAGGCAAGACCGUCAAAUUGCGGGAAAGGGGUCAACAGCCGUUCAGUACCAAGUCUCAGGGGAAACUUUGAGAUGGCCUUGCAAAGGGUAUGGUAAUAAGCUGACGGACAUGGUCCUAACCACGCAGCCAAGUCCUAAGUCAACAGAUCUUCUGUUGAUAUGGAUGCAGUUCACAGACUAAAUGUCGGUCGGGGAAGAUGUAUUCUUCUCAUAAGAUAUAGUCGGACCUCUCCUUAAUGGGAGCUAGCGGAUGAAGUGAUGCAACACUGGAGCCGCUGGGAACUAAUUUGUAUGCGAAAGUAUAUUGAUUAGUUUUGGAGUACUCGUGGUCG;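 further: selection with 25 µg/mL kanamycin versus none on LB agar overnight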
- test-context: 37 °C
measurement-kind: self-splicing fitness (ln)
Please state the value as a number alone, without comment.

Example cases with answers are listed next.
    biopolymer_sequence            measurement_kind  observed_result
0  UAAAAGCAAUAUUACGUCGG  self-splicing fitness (ln)           -0.876
1  UCUUAGCAAUAUUACGCGGG  self-splicing fitness (ln)             -2.5
2  CGUAAGCAAUAUUACGCCUA  self-splicing fitness (ln)            -2.18
3  CCUUAGCAAUAUUACGGGGA  self-splicing fitness (ln)            -2.63
4  CGGCAGCAAUAUUACGACGU  self-splicing fitness (ln)           -0.471

In: Entry `AACUAGCAAUAUUACGUCCC` has what self-splicing fitness (ln)?
Out: 0.182

In: Entry `UCCUAGCAAUAUUACGCCAG` has what self-splicing fitness (ln)?
Out: -2.68

In: Entry `UUUGAGCAAUAUUACGUCAA` has what self-splicing fitness (ln)?
Out: -2.66

In: Entry `GUGAAGCAAUAUUACGUAGC` has what self-splicing fitness (ln)?
Out: -1.84

In: Entry `GGAUAGCAAUAUUACGACUG` has what self-splicing fitness (ln)?
Out: -1.08
